- System: Pseudomonas aeruginosa (ATCC 27883)
- assay-setup: ATCC 27883
Non-standard residues stand in square brackets, D forms with d. Residues, ends and D or L forms follow the SMILES beside them. 2Nal = N[C@@H](Cc1ccc2ccccc2c1)C(=O)O; d2Nal = N[C@H](Cc1ccc2ccccc2c1)C(=O)O; Dab = NCC[C@H](N)C(=O)O
quantity: MIC P. aeruginosa ATCC 27883 (µg/mL)
Give a bare numeral; the unit µg/mL is implied.

Query string: Query (molecule): N=C(N)NCCC[C@@H]1NC(=O)CNC(=O)CNC(=O)[C@H](Cc2c[nH]c3ccccc23)NC(=O)[C@H](Cc2c[nH]c3ccccc23)NC(=O)[C@H](Cc2c[nH]c3ccccc23)NC(=O)[C@H](Cc2c[nH]c3ccccc23)NC(=O)CNC(=O)CNC(=O)[C@H](CCCNC(=N)N)NC(=O)[C@H](CCCNC(=N)N)NC(=O)[C@H](CCCNC(=N)N)NC1=O [IFX-044] (cyclo(GGRRRRGGWWWW)) ; field requested: MIC P. aeruginosa ATCC 27883
Result string: 50

Query string: Given the entry N=C(N)NCCC[C@H](NC(=O)[C@H](CCCNC(=N)N)NC(=O)[C@@H](N)CCCNC(=N)N)C(=O)N[C@@H](Cc1c[nH]c2ccccc12)C(=O)N[C@@H](Cc1ccc2ccccc2c1)C(=O)N[C@@H](Cc1ccc2ccccc2c1)C(=O)O [IFX-023-1, NH2-R-R-R-Trp-NaI-NaI-OH] (H-RRRW[2Nal][2Nal]-OH) , report its measured MIC P. aeruginosa ATCC 27883.
Result string: 25

Query string: Any idea what its MIC P. aeruginosa ATCC 27883 is? The molecule is N=C(N)NCCC[C@@H]1NC(=O)[C@H](CCCNC(=N)N)NC(=O)[C@@H](CCCNC(=N)N)NC(=O)[C@H](CCCNC(=N)N)NC(=O)[C@H](Cc2ccc3ccccc3c2)NC(=O)[C@H](Cc2ccc3ccccc3c2)NC(=O)[C@H](Cc2c[nH]c3ccccc23)NC1=O [IFX-107, c[Arg-arg-Arg-Arg-Trp-NaI-NaI]] (cyclo([2Nal][2Nal]R[dR]RRW))
Result string: 6.2

Query string: Please look up its MIC P. aeruginosa ATCC 27883: N=C(N)NCCC[C@@H]1NC(=O)[C@H](CCN)NC(=O)[C@@H](CCCNC(=N)N)NC(=O)[C@H](CCCNC(=N)N)NC(=O)[C@@H](Cc2ccc3ccccc3c2)NC(=O)[C@@H](Cc2ccc3ccccc3c2)NC(=O)[C@H](Cc2c[nH]c3ccccc23)NC(=O)[C@@H](CCCNC(=N)N)NC1=O [IFX-055, c[Arg-arg-Dab-Arg-arg-Trp-naI-naI]] (cyclo([Dab]R[dR]W[d2Nal][d2Nal]R[dR]))
Result string: 32

Query string: Recorded MIC P. aeruginosa ATCC 27883 for NCCCC[C@H]1NC(=O)[C@H](Cc2ccc3ccccc3c2)NC(=O)[C@H](Cc2ccc3ccccc3c2)NC(=O)[C@H](Cc2c[nH]c3ccccc23)NC(=O)[C@@H](CCCCN)NC(=O)[C@@H](CCCCN)NC(=O)[C@@H](CCCCN)NC(=O)[C@@H](CCCCN)NC1=O [IFX-134, c[lys-lys-lys-lys-lys-Trp-NaI-NaI]] (cyclo([2Nal][2Nal][dK][dK][dK][dK][dK]W)) , please?
Result string: 128

Query string: Using the record for N=C(N)NCCC[C@@H]1NC(=O)[C@H](CCCNC(=N)N)NC(=O)[C@H](Cc2ccc3ccccc3c2)NC(=O)[C@H](Cc2ccc3ccccc3c2)NC(=O)[C@@H](Cc2ccc3ccccc3c2)NC(=O)[C@H](CCCNC(=N)N)NC(=O)[C@H](CCCNC(=N)N)NC1=O [IFX-076, c[Arg-Arg-Arg-Arg-naI-NaI-NaI]] (cyclo(RRRR[d2Nal][2Nal][2Nal])) , report its MIC P. aeruginosa ATCC 27883.
Result string: 12.5

###

- assay-method-text: in vitro
- assay-setup: human, fresh human red blood cells (washed), pH 7.4
Non-standard residues stand in square brackets, D forms with d. Residues, ends and D or L forms follow the SMILES beside them. dDip = N[C@@H](C(=O)O)C(c1ccccc1)c1ccccc1; 2Nal = N[C@@H](Cc1ccc2ccccc2c1)C(=O)O; d2Nal = N[C@H](Cc1ccc2ccccc2c1)C(=O)O
Criterion: HC50 at 0.5 h strictly less than 200 µg/mL. Met: Yes. Not met: No.

Query string: # check: HC50 at 0.5 h < 200 µg/mL for N=C(N)NCCC[C@@H]1NC(=O)[C@H](CCCNC(=N)N)NC(=O)[C@H](CCCNC(=N)N)NC(=O)[C@@H](Cc2ccc3ccccc3c2)NC(=O)[C@@H](Cc2ccc3ccccc3c2)NC(=O)[C@H](Cc2c[nH]c3ccccc23)NC(=O)[C@H](CCCNC(=N)N)NC1=O [IFX-112, c[Arg-Arg-Arg-Arg-Trp-naI-naI]] (cyclo(RRRRW[d2Nal][d2Nal]))
Result string: No

Query string: Take the compound N=C(N)NCCC[C@@H]1NC(=O)[C@H](CCCNC(=N)N)NC(=O)[C@H](CCCNC(=N)N)NC(=O)[C@@H](Cc2ccc3ccccc3c2)NC(=O)[C@@H](Cc2ccc3ccccc3c2)NC(=O)[C@@H](Cc2c[nH]c3ccccc23)NC(=O)[C@H](CCCNC(=N)N)NC1=O [IFX-114, c[Arg-Arg-Arg-Arg-trp-naI-naI]] (cyclo(RRRR[dW][d2Nal][d2Nal])) and say whether its HC50 at 0.5 h is less than 200 µg/mL.
Result string: No

Query string: I'd appreciate it if you could check whether N=C(N)NCCC[C@@H]1NC(=O)[C@@H](CCCNC(=N)N)NC(=O)[C@H](CCCNC(=N)N)NC(=O)[C@@H](Cc2ccc3ccccc3c2)NC(=O)[C@@H](Cc2ccc3ccccc3c2)NC(=O)[C@@H](Cc2ccc3ccccc3c2)NC(=O)[C@@H](CCCNC(=N)N)NC1=O [IFX-084, c[Arg-arg-Arg-arg-naI-naI-naI]] (cyclo(R[dR]R[dR][d2Nal][d2Nal][d2Nal])) has HC50 at 0.5 h smaller than 200 µg/mL.
Result string: No

Query string: Item N=C(N)NCCC[C@@H]1NC(=O)[C@@H](CCCNC(=N)N)NC(=O)[C@H](CCCNC(=N)N)NC(=O)[C@@H](CCCNC(=N)N)NC(=O)[C@@H](Cc2ccc3ccccc3c2)NC(=O)[C@@H](Cc2ccc3ccccc3c2)NC(=O)[C@H](Cc2c[nH]c3ccccc23)NC1=O [IFX-110, c[arg-Arg-arg-Arg-Trp-naI-naI]] (cyclo([dR]R[dR]RW[d2Nal][d2Nal])) : HC50 at 0.5 h beneath 200 µg/mL, strictly?
Result string: No

Query string: Lab note: confirm whether the reported HC50 at 0.5 h for this compound is below 200 µg/mL, equality not counting. compound: N=C(N)NCCC[C@@H]1NC(=O)[C@@H](CCCNC(=N)N)NC(=O)[C@H](CCCNC(=N)N)NC(=O)[C@@H](CCCNC(=N)N)NC(=O)[C@@H](Cc2ccc3ccccc3c2)NC(=O)[C@@H](Cc2ccc3ccccc3c2)NC(=O)[C@@H](Cc2ccc3ccccc3c2)NC1=O [IFX-082, c[arg-Arg-arg-Arg-naI-naI-naI]] (cyclo([dR]R[dR]R[d2Nal][d2Nal][d2Nal]))
Result string: Yes

Query string: Lab note: HC50 at 0.5 h threshold 200 µg/mL. Does this compound come in strictly under it? N=C(N)NCCC[C@@H](N)C(=O)N[C@@H](CCCNC(=N)N)C(=O)N[C@H](CCCNC(=N)N)C(=O)N[C@@H](CCCNC(=N)N)C(=O)N[C@@H](C(=O)N[C@@H](C(=O)N[C@@H](C(=O)O)C(c1ccccc1)c1ccccc1)C(c1ccccc1)c1ccccc1)C(c1ccccc1)c1ccccc1 [IFX-068-1] (H-[dR]R[dR]R[dDip][dDip][dDip]-OH)
Result string: No

Query string: Lab log: compare recorded HC50 at 0.5 h with 200 µg/mL; is it strictly lower for N=C(N)NCCC[C@@H]1NC(=O)[C@H](Cc2ccc3ccccc3c2)NC(=O)[C@@H](Cc2ccc3ccccc3c2)NC(=O)[C@H](Cc2ccc3ccccc3c2)NC(=O)[C@@H](CCCNC(=N)N)NC(=O)[C@H](CCCNC(=N)N)NC(=O)[C@@H](CCCNC(=N)N)NC1=O [IFX-085, c[Arg-arg-Arg-arg-NaI-naI-NaI]] (cyclo(R[dR]R[dR][2Nal][d2Nal][2Nal])) ?
Result string: Yes

Query string: Is 200 µg/mL strictly greater than the compound's reported HC50 at 0.5 h? compound: N=C(N)NCCC[C@@H]1NC(=O)[C@H](Cc2ccc3ccccc3c2)NC(=O)[C@H](Cc2ccc3ccccc3c2)NC(=O)[C@H](Cc2ccc3ccccc3c2)NC(=O)[C@@H](CCCNC(=N)N)NC(=O)[C@H](CCCNC(=N)N)NC(=O)[C@H](CCCNC(=N)N)NC1=O [IFX-077, c[Arg-Arg-Arg-arg-NaI-NaI-NaI]] (cyclo(RRR[dR][2Nal][2Nal][2Nal]))
Result string: Yes

Query string: A record lists N=C(N)NCCC[C@H]1NC(=O)[C@@H](CCCNC(=N)N)NC(=O)[C@@H](CCCNC(=N)N)NC(=O)[C@@H](CCCNC(=N)N)NC(=O)[C@@H](Cc2ccc3ccccc3c2)NC(=O)[C@@H](Cc2ccc3ccccc3c2)NC(=O)[C@H](Cc2c[nH]c3ccccc23)NC1=O [IFX-109, c[arg-arg-arg-arg-Trp-naI-naI]] (cyclo(W[d2Nal][d2Nal][dR][dR][dR][dR])) . Is its HC50 at 0.5 h below 200 µg/mL?
Result string: Yes

Query string: Given the entry N=C(N)NCCC[C@@H]1NC(=O)[C@H](Cc2ccc3ccccc3c2)NC(=O)[C@H](Cc2ccc3ccccc3c2)NC(=O)[C@H](Cc2c[nH]c3ccccc23)NC(=O)[C@H](CCCNC(=N)N)NC(=O)[C@@H](CCCNC(=N)N)NC(=O)[C@H](CCCNC(=N)N)NC1=O [IFX-106, c[Arg-Arg-arg-Arg-Trp-NaI-NaI]] (cyclo([2Nal][2Nal]RR[dR]RW)) , would its reported HC50 at 0.5 h be below 200 µg/mL?
Result string: Yes

Query string: In plain terms, does N=C(N)NCCC[C@@H]1NC(=O)[C@H](Cc2ccc3ccccc3c2)NC(=O)[C@H](Cc2ccc3ccccc3c2)NC(=O)[C@H](Cc2ccc3ccccc3c2)NC(=O)[C@H](CCCNC(=N)N)NC(=O)[C@@H](CCCNC(=N)N)NC(=O)[C@H](CCCNC(=N)N)NC1=O [IFX-078, c[Arg-Arg-arg-Arg-NaI-NaI-NaI]] (cyclo(RR[dR]R[2Nal][2Nal][2Nal])) come in under 200 µg/mL for HC50 at 0.5 h?
Result string: Yes
